Where these numbers come from: ChEMBL document CHEMBL1201862

molecular target: Intestinal-type alkaline phosphatase (Homo sapiens); test: inhibition of human intestinal alkaline phosphatase – biochemical, dose response (AID 488876); format: functional
Sequence (P09923 whole entry): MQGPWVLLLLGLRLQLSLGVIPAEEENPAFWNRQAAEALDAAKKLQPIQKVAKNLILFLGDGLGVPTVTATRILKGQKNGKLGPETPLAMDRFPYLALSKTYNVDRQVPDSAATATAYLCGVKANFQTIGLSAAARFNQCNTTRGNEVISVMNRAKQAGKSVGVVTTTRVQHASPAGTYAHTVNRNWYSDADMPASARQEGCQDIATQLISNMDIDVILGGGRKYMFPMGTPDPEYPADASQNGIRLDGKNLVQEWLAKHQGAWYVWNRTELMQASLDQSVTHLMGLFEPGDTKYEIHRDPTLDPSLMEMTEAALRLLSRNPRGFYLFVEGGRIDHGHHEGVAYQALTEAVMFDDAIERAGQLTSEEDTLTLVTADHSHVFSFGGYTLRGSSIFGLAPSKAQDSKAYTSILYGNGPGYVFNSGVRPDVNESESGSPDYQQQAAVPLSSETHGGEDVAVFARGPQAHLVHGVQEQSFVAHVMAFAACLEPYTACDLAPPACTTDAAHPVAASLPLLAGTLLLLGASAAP
Active and inactive are the calls of the source. No stated cut-off is given here; in the data, actives have a measured IC50 and inactives only a lower limit.
API: response.call in yes (1) = active, no (0) = inactive

Dear colleague, could you share the recorded outcome for `C#CCOCCOCCOCCNc1nc(N2CCN(C(=O)CCCCCCCCCCNC(=O)[C@H](CO)n3cc(CCCSC)nn3)CC2)nc(N2CCN(C(=O)CCCCCCCCCCNC(=O)[C@H](CCCN=C(N)N)n3cc(C[C@@H](C)CC)nn3)CC2)n1` when you have a moment?
no (0)

Dear colleague, could you share the recorded outcome for `Oc1ccc(-c2csc(Nc3cccc4ccccc34)n2)cc1O` when you have a moment?
yes (1)

Dear colleague, could you share the recorded outcome for `C#CCOCCOCCOCCNc1nc(N2CCN(C(=O)CCCCCCCCCCNC(=O)[C@@H](CCSC)n3cc(CCO)nn3)CC2)nc(N2CCN(C(=O)CCCCCCCCCCNC(=O)[C@H]([C@@H](C)CC)n3cc(CCCCN=C(N)N)nn3)CC2)n1` when you have a moment?
no (0)

Dear colleague, could you share the recorded outcome for `Cc1cc(F)ccc1S(=O)(=O)Nc1ccc(O)c(Sc2nnc[nH]2)c1` when you have a moment?
yes (1)
